src = PubChem BioAssay

Experiment: osmotic lysis modulators in infected erythrocytes, primary screen, PSAC antagonist project, cell-based, P. falciparum Indochina, OD700, 3 h (AID 1156)
Settings: higher = more signal, called active from +8 up or from −8 down
Label YES when z-score >= -0.4; otherwise NO.

{"MOLECULE": "CC(C)CCC[C@@H](C)[C@H]1CC[C@@]2(C)C3=C(CC[C@]12C)[C@@]1(C)CC[C@H](OC(=O)CCl)C(C)(C)C1CC3 (stereo partly specified)", "ANSWER LABEL": "NO"}
{"MOLECULE": "CC(C)(C)OC(=O)CC[C@@]1(C(=O)NCc2ccccc2)N=C(c2ccc(OCCCO)cc2)O[C@@H]1c1ccccc1CN=[N+]=[N-]", "ANSWER LABEL": "YES"}
{"MOLECULE": "Cc1ccc(S[C@]2(C(=O)NCCN3CCOCC3)CC(=O)N(Cc3cc(C(F)(F)F)cc(C(F)(F)F)c3)[C@@H]2c2ccc(CO)cc2)cc1", "ANSWER LABEL": "NO"}
{"MOLECULE": "CCOC(=O)C[C@H]1[C@H](OC(=O)c2ccc(C(=O)c3ccccc3)cc2)[C@@H](NC(=O)Cc2ccc(OC)cc2)c2cc(OCCCO)ccc2N1C(=O)Cc1ccc(OC)cc1", "ANSWER LABEL": "YES"}
{"MOLECULE": "COc1ccc([Si](C)(C)[C@@H]2[C@@H](CCn3cc(CCO)nn3)O[C@]3(C(=O)N(Cc4ccc(N5C(=O)c6cccc7cccc5c67)cc4)c4ccccc43)[C@H]2C)cc1", "ANSWER LABEL": "NO"}

Check this molecule for z-score at or above -0.4: CO[C@H]1O[C@H](CO)[C@@H](OC(=O)Nc2ccccc2)[C@H](OC(=O)Nc2ccccc2-c2ccccc2)[C@H]1OC(=O)Nc1ccccc1-c1ccccc1
NO

====

Assay: Cryptococcus neoformans growth inhibition, dose response, Alamar Blue, cherry-picks (AID 686998)
Conditions: 24 h; series mostly up to 35 µM
Potency and affinity values are given separately. Results filed as inconclusive are left out. Calls of active or inactive are those of the source.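 Rule for the calls: active = falling signal with fitted half-maximal potency no higher than twice the top valid tested dose; inconclusive = poor fit quality, or flat fit spanning -70% to -30%; inactive = potency over limit, rising signal, or flat fit inside 30%.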
OBSERVED PROPERTY: outcome

{"LINE NOTATION": "Cc1noc(C)c1NC(=O)Nc1ccc2c(c1)C(=O)N([C@H](C)CO)C[C@@H](C)[C@H](CN(C)C(=O)Nc1ccc(F)cc1)OCCCC[C@@H](C)O2", "RECORDED MEASUREMENT": "inactive"}
{"LINE NOTATION": "C/C=C/c1ccc([C@H]2[C@@H](C#N)N(S(=O)(=O)c3cccc(F)c3)[C@H]2CO)cc1", "RECORDED MEASUREMENT": "inactive"}
{"LINE NOTATION": "C[C@@H]1CCCCO[C@H](CN(C)Cc2ccncc2)[C@@H](C)CN([C@H](C)CO)C(=O)c2cc(N(C)C)ccc2O1", "RECORDED MEASUREMENT": "inactive"}
{"LINE NOTATION": "CN1[C@@H]2c3ccc(-c4cccnc4)c(=O)n3C[C@@H]2[C@@H](CO)[C@@H]1C(=O)N1CCc2ccccc2C1", "RECORDED MEASUREMENT": "inactive"}

====

Each entry below carries its recorded z-score.
Assay: FRG1 promoter luciferase signal modulators, primary screen, FRG1 inhibition for FSHD, cell-based, C2C12 myotubes, firefly/Renilla luciferase, luminescence (AID 1084)
Settings: higher = more signal, called active from +8 up or from −8 down
A bare number is all that is needed in reply.

{"COMPOUND": "COC(=O)c1c(CC[C@@H](CO)NC(=O)Nc2ccc(OC)cc2)oc(C(=O)Cc2ccccc2)c1C(=O)OC", "z-score": -0.814}
{"COMPOUND": "C=C(/C(=C/C[C@H](OC(=O)c1ccncc1)c1cccc(OCCO)c1)c1cc(C(=O)OC)ccc1OC)C(C)C", "z-score": -1.23}
{"COMPOUND": "CCCCCCC#C[Si](O[C@H](c1ccccc1)c1cn(Cc2ccccc2)nn1)(C(C)C)C(C)C", "z-score": -0.494}
{"COMPOUND": "COCCOC(=O)N1C(=O)[C@@]2(c3cc(C#CCCO)ccc31)[C@H](c1ccccc1OCCO)N1[C@H](c3ccccc3)[C@H](c3ccccc3)OC(=O)[C@H]1[C@@H]2C(=O)NC[C@H](O)c1ccccc1", "z-score": -2.36}
{"COMPOUND": "CC(C)CCC[C@@H](C)[C@H]1CC[C@@]2(C)C3=C(CC[C@]12C)[C@@]1(C)CC[C@H](OC(=O)CCl)C(C)(C)C1CC3 (some centres not stated)", "z-score": -0.0513}

Hello, please tell me recorded z-score for this one: C=CC[C@@H](OC(=O)Nc1ccc(SC)cc1)c1ccc(OCCO)cc1
4.02

Provide z-score value for the following compound: O=C(NCC(F)(F)F)[C@@H]1c2ccccc2C(=O)N(C2Cc3ccccc3C2)[C@H]1c1ccc(CO)cc1
-0.827
